# Test system: Brassica juncea
# EXPERIMENTAL DETAILS: Herbicidal activity against Brassica juncea assessed as growth inhibition at 150 g ai/ha using post-emergence protocol under greenhouse conditions measured 15 days after compound treatment
# Assay type: functional
# CONDITION PARAMETERS: 360 h, read-out: GI
Each item that follows carries a reported inhibition of growth at 150 g/ha.

Check out these entries, answers already filled in.
> print(dat)
                                   compound                 reported.endpoint  endpoint.result
1  CCOC(=O)C(C)Oc1cc(N2C(=O)C3CCCCC3C2O)c(F)cc1Cl (configuration not stated)  inhibition of growth at 150 g/ha            < 50%
2  COc1cc(N2C(=O)C3=C(CCCC3)C2OC)c(F)cc1Cl (configuration not stated)  inhibition of growth at 150 g/ha              50%
3  C=CCOC1C2=C(CCCC2)C(=O)N1c1cc(O)c(Br)cc1F (configuration not stated)  inhibition of growth at 150 g/ha            < 50%

Would you kindly look at the next entry?
input: Output measured inhibition of growth at 150 g/ha for this item: CCOC(=O)C(C)Oc1cc(N2C(=O)C3CCCCC3C2=O)c(F)cc1Cl (configuration not stated)
output: 50%

----------
# Test system: Brassica juncea
# EXPERIMENTAL DETAILS: Herbicidal activity against Brassica juncea assessed as growth inhibition at 150 g ai/ha using post-emergence protocol under greenhouse conditions measured 15 days after compound treatment
# Type: functional
# CONDITION PARAMETERS: 360 h, read-out: GI
Each item that follows carries a reported inhibition of growth at 150 g/ha.

> print(dat)
                                   compound  endpoint.result
1  CC(C)Oc1cc(N2C(=O)C3CCCCC3C2O)c(F)cc1Cl (stereo not drawn)            < 50%
2  Cc1nn(-c2cc(NS(C)(=O)=O)c(Cl)cc2Cl)c(=O)n1C(F)F             100%
3  COC1C2=C(CCCC2)C(=O)N1c1cc(OCc2cccc(Cl)c2)c(Cl)cc1F (stereo not drawn)              50%
4  COc1cc(N2C(=O)C3CCCCC3C2=O)c(F)cc1Cl (stereo not drawn)              50%
5   CC(C)Oc1cc(N2CC3=C(CCCC3)C2=O)c(F)cc1Cl            > 80%

input: Output measured inhibition of growth at 150 g/ha for this item: CCOC(=O)COc1cc(N2C(=O)C3CCCCC3C2O)c(F)cc1Cl (stereo not drawn)
output: < 50%

input: Output measured inhibition of growth at 150 g/ha for this item: `CCCOc1cc(N2CC3=C(CCCC3)C2=O)c(Cl)cc1Cl`
output: < 50%

input: Output measured inhibition of growth at 150 g/ha for this item: O=C1C2=C(CCCC2)C(O)N1c1cc(O)c(Br)cc1F (stereo not drawn)
output: < 50%

input: Output measured inhibition of growth at 150 g/ha for this item: `CCCOc1cc(N2CC3=C(CCCC3)C2=O)c(F)cc1Cl`
output: > 80%

input: Output measured inhibition of growth at 150 g/ha for this item: `CCOc1cc(N2CC3=C(CCCC3)C2=O)c(Cl)cc1Cl`
output: < 50%

input: Output measured inhibition of growth at 150 g/ha for this item: C#CCOc1cc(N2C(=O)C3CCCCC3C2O)c(F)cc1Cl (stereo not drawn)
output: < 50%

input: Output measured inhibition of growth at 150 g/ha for this item: COc1cc(N2C(=O)C3CCCCC3C2O)c(F)cc1Cl (stereo not drawn)
output: < 50%

input: Output measured inhibition of growth at 150 g/ha for this item: `C=CCOc1cc(N2CC3=C(CCCC3)C2=O)c(F)cc1Cl`
output: > 80%
